- System: Saccharomyces cerevisiae
- Procedure details: protein stability index of tFT-peptide fusion (C-terminal peptide) (PSI (0-1 scale)); higher = more stable (slower turnover)
- Condition parameters: genetic background: das1 deletion; temperature: 30 C
# cutoff 0.7 applies to protein stability index; >= gives t, < gives f

Ordered residues	Category
KNLTRTSVSFIG [TRS85 C-terminal 12 aa]	t
LWVTLLPEFTNF [YBR121C-A C-terminal 12 aa]	t
LTTISLYLMLKL [YGL262W C-terminal 12 aa]	f
VLLTILLFIQAY [SPO19 C-terminal 12 aa]	f

----------
- System: Saccharomyces cerevisiae
- Procedure details: protein stability index of tFT-peptide fusion (C-terminal peptide) (PSI (0-1 scale)); higher = more stable (slower turnover)
- Condition parameters: genetic background: wild type; temperature: 30 C
protein stability index for assorted sequences

Ordered residues	protein stability index
FLYDPVMLGLAC	0.469
SHFPPPSTPPVL	0.713
IVSVSLYLYHFR	0.548
LSPPLRHRLTPP	0.715
SRFVRNRYGRVV	0.648
DFMGLRCSARKA	0.693
VGMAGWSRVRWG	0.715
AGPAIEGARAPR	0.768
MSMVVCHGGGGL	0.663
TFRVLFSVALLV	0.212
EGRGKGKKKKTH	0.7
STPLPPLSLPLF	0.685
VIVQSWEIIRLN	0.21
PYSPPYSLTSLS	0.708
VRGLGFRWVWGW	0.711
PVWVDRGVLWSV	0.716
QTKSLLTPLLNL	0.65
RSYFGLACPSVS	0.626
FVSHRRFSLFLY	0.209
PNRPPLQFFPPP	0.697
PVDPPEDLNTRS	0.71
CVLLGSTIPAIV	0.645
HPSAALLSSCYK	0.677
SMFRNSWRKNKS	0.602
GLCPCGDAISTR	0.682
HLTIVNYIWEIL	0.549
LRGACWLARTRT	0.677
SLRSRSLRCRLS	0.38
RVLSVRFRIGRE	0.636
KLTKAQPRMPLL	0.702
DLRGLGRFRISH	0.572
IRLMTTIITYMI	0.44
PVPPLRRFPPLF	0.648
GRIVPSFQGSPQ	0.723
RKEKNRKEKSIQ	0.668
ASLSSSRPPLLP	0.746
ALVRVVRGIGFC	0.697
GSGRNMHLRGSL	0.65
SRGSSGHLVNLV	0.607
LSSLLFFLSWVV	0.529
LPSPSGSPVPFL	0.771
RCRKVSTISRFK	0.705
PPHHSLSPPLPP	0.661
LRGEGPGRKGGA	0.67
FYIQVFTPLGGS	0.639
LLTLPPPRLLSL	0.629
PGLRRHPPPPPP	0.739
LLCSSFSFHCFP	0.667
SPRPSVLPPLSL	0.734
LLLSALLLSASP	0.625
VMNGGCFGWAVG	0.628
AFRSPLLMLLVL	0.347
WERGGGGRVCGW	0.754
KKNQKEKATSRK	0.769

----------
Below, each of the sequences is paired with its reported protein stability index value.
- System: Saccharomyces cerevisiae
- Procedure details: protein stability index of tFT-peptide fusion (C-terminal peptide) (PSI (0-1 scale)); higher = more stable (slower turnover)
- Condition parameters: genetic background: wild type; temperature: 30 C

Ordered residues	Assayed system	protein stability index
SPHPLLSSPPPA	Saccharomyces cerevisiae	0.686
FRPPVPPPPVLP	Saccharomyces cerevisiae	0.683
YLGSPLSLMLVA	Saccharomyces cerevisiae	0.475
ATPTSPSRPFLL	Saccharomyces cerevisiae	0.707
AAWPYKYYLAHI	Saccharomyces cerevisiae	0.617
GGTFWDGLVLVH	Saccharomyces cerevisiae	0.497
SWELKWVYARVV	Saccharomyces cerevisiae	0.131
FKLVGRHLHSFD	Saccharomyces cerevisiae	0.652
LPRPLSPPLPSP	Saccharomyces cerevisiae	0.702
NDGLRRLICGGT	Saccharomyces cerevisiae	0.68
GSPPSPPLPPPP	Saccharomyces cerevisiae	0.674
KKMNVKNNKSKI	Saccharomyces cerevisiae	0.777
YREIVKQTENKR	Saccharomyces cerevisiae	0.673
HEIRSQSFGLYV	Saccharomyces cerevisiae	0.687
CTSSVRARRRFR	Saccharomyces cerevisiae	0.698
VCRGFRHQCWYG	Saccharomyces cerevisiae	0.665
ALFPNALYQTLL	Saccharomyces cerevisiae	0.723
PSPPVRPPLPPP	Saccharomyces cerevisiae	0.652
PPSPARFPPPSS	Saccharomyces cerevisiae	0.632
GGPASSGLMDGY	Saccharomyces cerevisiae	0.698
RPLLIYSPFPLF	Saccharomyces cerevisiae	0.662
CGQIAFLGIAVK	Saccharomyces cerevisiae	0.472
TNCNSHKLMAAL	Saccharomyces cerevisiae	0.679
VESRVVGGGGDW	Saccharomyces cerevisiae	0.683
RKNEKKKKKNKK	Saccharomyces cerevisiae	0.665
CSIVGLGACVSW	Saccharomyces cerevisiae	0.669
RHLALSRPTPFP	Saccharomyces cerevisiae	0.703
VCPPIVSSSWIL	Saccharomyces cerevisiae	0.687
TCLWVCARGFGG	Saccharomyces cerevisiae	0.693
RILKLPGHVNDV	Saccharomyces cerevisiae	0.717
PPRLASFYIILG	Saccharomyces cerevisiae	0.571
PPATTPASTNLQ	Saccharomyces cerevisiae	0.7
YLVRENLFSRLV	Saccharomyces cerevisiae	0.466
GSGAQVERCRWE	Saccharomyces cerevisiae	0.719
PLPPVVSFALSR	Saccharomyces cerevisiae	0.661
IWFRGGPGQVPV	Saccharomyces cerevisiae	0.683
AWGELGSGVFGL	Saccharomyces cerevisiae	0.681
VGGCLFQLSSGY	Saccharomyces cerevisiae	0.683
WIGRSVGVELCR	Saccharomyces cerevisiae	0.807
RFAGCFSFFRAA	Saccharomyces cerevisiae	0.683
RILPSPVSAGGF	Saccharomyces cerevisiae	0.62
WWGCRSVGVGLG	Saccharomyces cerevisiae	0.675
QLRPLSPLPPQP	Saccharomyces cerevisiae	0.738
SIWVGSRFRWVV	Saccharomyces cerevisiae	0.35
PPPSPPPPPSLP	Saccharomyces cerevisiae	0.669
PPPRPPALPPLP	Saccharomyces cerevisiae	0.69
LFFLLPSSPIGF	Saccharomyces cerevisiae	0.705
LPPLPRPLLLPR	Saccharomyces cerevisiae	0.661
LRGPRTSTPLST	Saccharomyces cerevisiae	0.714
RGEARDARGLEW	Saccharomyces cerevisiae	0.763
LKELDTGVEQDE	Saccharomyces cerevisiae	0.671
SRKCLPPLQLWS	Saccharomyces cerevisiae	0.759
FERVEYEVLGIG	Saccharomyces cerevisiae	0.415
AFTPGTTVYVSQ	Saccharomyces cerevisiae	0.699
KRKRQKNIRNER	Saccharomyces cerevisiae	0.704
GGRGRGARPGGR	Saccharomyces cerevisiae	0.647
SSRWSMEHMAAW	Saccharomyces cerevisiae	0.715
AFCFCIFSSFLV	Saccharomyces cerevisiae	0.535
GGGWRGRRVADF	Saccharomyces cerevisiae	0.701
RFAEEDFIVERT	Saccharomyces cerevisiae	0.727
GPSFVVTVGNGG	Saccharomyces cerevisiae	0.686
TAWVDSMVCMLL	Saccharomyces cerevisiae	0.71
ASIFPTLKLTYL	Saccharomyces cerevisiae	0.713
VWWWGAVGWLMV	Saccharomyces cerevisiae	0.454
EEMTVKKERKRI	Saccharomyces cerevisiae	0.641
YFVAVLGRCIRG	Saccharomyces cerevisiae	0.652
LVTCPPPVGGPS	Saccharomyces cerevisiae	0.691
VCWHSNCVGARH	Saccharomyces cerevisiae	0.652
SLPLPNTPVPPI	Saccharomyces cerevisiae	0.723
WGGVRSGGACCA	Saccharomyces cerevisiae	0.72
KNKKKKINKNKK	Saccharomyces cerevisiae	0.713
RKIIIINLQKIK	Saccharomyces cerevisiae	0.586
CVLAPPHRRAPS	Saccharomyces cerevisiae	0.699
